# EXPERIMENT_NOTES: NCI Yeast Anticancer Drug Screen. Data for the rad50 strain (AID 155);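 also: 0% = growth of vehicle-only cultures of the same strain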
# TEST_SETTINGS: S. cerevisiae rad50 strain growth inhibition; at 50.0 µM; active compounds read high
The panel holds about 79,000 compounds, 15% with a hit somewhere; the sample as a whole holds those more often.
In this section we review reported growth inhibition values for a set of molecules.
MEASUREMENT_TYPE: growth inhibition (%)

- MOLECULE: "CCOC(=O)C1=C(C)/C(=C\\c2[nH]c(C)c(C(=O)OCC)c2C)N=C1C"
  MEASUREMENT_TYPE: "growth inhibition"
  QUANTITATIVE_READOUT: 8.95
- MOLECULE: "O=NN1CCCCC1"
  MEASUREMENT_TYPE: "growth inhibition"
  QUANTITATIVE_READOUT: -18.2
- MOLECULE: "O=C(O)C(F)(F)C(F)(Cl)C(F)(F)C(F)(Cl)C(F)(F)Cl (stereo not given) (tested in a mixture with another compound)"
  MEASUREMENT_TYPE: "growth inhibition"
  QUANTITATIVE_READOUT: -7.65
- MOLECULE: "O=[N+]([O-])c1ccc(O)c(C=NCCN=Cc2cc([N+](=O)[O-])ccc2O)c1.[Zn+2]"
  MEASUREMENT_TYPE: "growth inhibition"
  QUANTITATIVE_READOUT: 15.4
- MOLECULE: "ClCCN(CCCl)c1ccc(CCCCN2CCCCC2)cc1"
  MEASUREMENT_TYPE: "growth inhibition"
  QUANTITATIVE_READOUT: 20.2

----------
# EXPERIMENT_NOTES: NCI Yeast Anticancer Drug Screen. Data for the mlh1 rad18 strain (AID 175)
# TEST_SETTINGS: S. cerevisiae mlh1 rad18 strain growth inhibition; at 50.0 µM
# Method: Growth inhibition of yeast strains with defined genetic alterations is measured as a screen for potential anti-cancer activity. Selected strains with alterations in DNA damage repair or cell cycle control were exposed to compounds and growth inhibition was measured relative to vehicle treated controls. The strain used in this assay is mlh1 rad18
About 79,000 compounds went through this panel and 15% of them were active in at least one assay; those are over-represented in the sample as a whole. Active and inactive are the calls of the source. No stated cut-off is given here; in the data, active means growth inhibition above about 70%; inactive means the rest.
Labels: YES (active), NO (inactive)

- COMPOUND: "Nc1ccc2c(c1)[O][Sn]([c]1ccccc1)([c]1ccccc1)[O]C2=O"
  CLASSIFICATION: "YES"
- COMPOUND: "Cc1ccc2[nH]cc(CCN)c2c1"
  CLASSIFICATION: "NO"
- COMPOUND: "CCOc1ccccc1C=C(C#N)C#N"
  CLASSIFICATION: "NO"
- COMPOUND: "COc1ccc(NC2=C(C)C(=O)C3=C(C2=O)[C@H](COC(N)=O)[C@]2(OC)[C@@H]4N[C@@H]4CN32)cc1"
  CLASSIFICATION: "YES"
- COMPOUND: "CC(=O)O[C@@]12CO[C@@H]1CC(O)[C@@]1(C)C(=O)[C@H](O)C3=C(C)C(O)C[C@@](O)(C(OC(=O)c4ccccc4)C12)C3(C)C (stereo partly drawn)"
  CLASSIFICATION: "NO"
- COMPOUND: "N#CC(CCN1CCC(Nc2ccccc2)(c2nnnn2C2CCCCC2)CC1)(c1ccccc1)c1ccccc1"
  CLASSIFICATION: "NO"
- COMPOUND: "CCC(=O)c1ccc(N)cc1"
  CLASSIFICATION: "NO"
- COMPOUND: "O=C(NCCc1ccccn1)c1ccc2cc(C(=O)N3CC(CCl)c4ccc([N+](=O)[O-])cc43)[nH]c2c1 (stereo not drawn)"
  CLASSIFICATION: "NO"
- COMPOUND: "O=C(Nc1ccc(S(=O)(=O)F)cc1)c1ccc2ccccc2c1O"
  CLASSIFICATION: "NO"
- COMPOUND: "C/C=C1\\CN2CCC1CC2C(O)c1ccnc2ccc(O)cc12 (stereo not drawn)"
  CLASSIFICATION: "NO"
- COMPOUND: "C=CC(Cl)OC(=O)C(C)O (stereo not drawn)"
  CLASSIFICATION: "NO"
- COMPOUND: "O=C(O)C(CSC(c1ccccc1)(c1ccccc1)c1ccccc1)N1C(=O)c2ccccc2C1=O (stereo not drawn)"
  CLASSIFICATION: "YES"
- COMPOUND: "CCC(C(C)C)C1NC1C(C)C1CCC2C3CC=C4CC(OC(C)=O)CCC4(C)C3CCC12C (stereo not drawn)"
  CLASSIFICATION: "YES"
- COMPOUND: "CCC[CH2][Sn]([Cl])([Cl])[CH2]CCC.c1ccncc1"
  CLASSIFICATION: "YES"
- COMPOUND: "C1CCN2CC3CONC3C2C1 (stereo not drawn)"
  CLASSIFICATION: "NO"
- COMPOUND: "O=C(O)c1ccccc1Cl"
  CLASSIFICATION: "NO"
- COMPOUND: "CN1CN(c2ccccc2)C2(CCN(CCc3cc4ccccc4o3)CC2)C1=O"
  CLASSIFICATION: "NO"
- COMPOUND: "CC(C)CCCC(C)C1CCC2C3CC=C4CC([Se][As](C)C)CCC4(C)C3CCC12C (stereo not drawn)"
  CLASSIFICATION: "NO"

----------
# EXPERIMENT_NOTES: NCI Yeast Anticancer Drug Screen. Data for the sgs1 mgt1 strain (AID 161);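 also: 0% = growth of cultures given vehicle only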
# TEST_SETTINGS: S. cerevisiae sgs1 mgt1 strain, at 50.0 µM, active compounds read high
The panel holds about 79,000 compounds, 15% with a hit somewhere; the sample as a whole holds those more often.

- MOLECULE: "O=[N+]([O-])C1(Cl)CCC(Cl)([N+](=O)[O-])CC1 (stereo not drawn)"
  growth inhibition [%]: -2.1
- MOLECULE: "C=CC[As+](c1cccc2ccccc12)(c1cccc2ccccc12)c1cccc2ccccc12"
  growth inhibition [%]: -15.1
- MOLECULE: "CSCCC(N)C(=O)O.[Pb] (stereo not drawn)"
  growth inhibition [%]: 13.1
- MOLECULE: "Cc1ccc(C(O)(c2ccc(C)cc2)c2ccccn2)cc1"
  growth inhibition [%]: -7
- MOLECULE: "S=P(Oc1cc(Cl)c(Cl)cc1Cl)(N1CCOCC1)N1CCOCC1"
  growth inhibition [%]: 42
- MOLECULE: "CC1(c2cccc(N(CCCl)CCCl)c2)NC(=O)NC1=O (stereo not drawn)"
  growth inhibition [%]: 13.2
- MOLECULE: "C[C@]12CC[C@@H]3C4=CC(=O)CC[C@@H]4CC[C@H]3[C@@H]1CC[C@@H]2O"
  growth inhibition [%]: 5.2
- MOLECULE: "O=C(O)c1cccc([As]=[As]c2cccc(C(=O)O)c2)c1 (stereo not drawn)"
  growth inhibition [%]: -8.75
- MOLECULE: "NNc1nncn1N"
  growth inhibition [%]: -23.4
- MOLECULE: "CNP(=S)(Oc1cc(Cl)c(Cl)cc1Cl)N1CCN(c2ccc(Cl)cc2)CC1 (stereo not drawn)"
  growth inhibition [%]: 4.35
- MOLECULE: "O=C1NC(=O)C2(c3ccccc3)CCN1C2=O (stereo not drawn)"
  growth inhibition [%]: 1.8
- MOLECULE: "O=S(=O)(N=S(CCCl)CCCl)c1ccccc1"
  growth inhibition [%]: 24.3
- MOLECULE: "CNC(Cc1ccccc1)c1ccc(O)c(OC)c1 (stereo not drawn)"
  growth inhibition [%]: -7.35
- MOLECULE: "O=C([O-])C(=O)[O-].[Co+3].[NH2-].[NH2-].[NH2-].[NH2-].[O-][Cl+3]([O-])([O-])O"
  growth inhibition [%]: 13.2
- MOLECULE: "O=C1NC(=O)C(=Cc2ccccn2)C(=O)N1"
  growth inhibition [%]: -0.45
- MOLECULE: "ClCCCCBr"
  growth inhibition [%]: 20.4
- MOLECULE: "CC(Cl)CN(CC(C)Cl)c1ccc2c(c1)Cc1ccccc1-2 (stereo not drawn)"
  growth inhibition [%]: 2.65
- MOLECULE: "NC(CSSCC(N)C(=O)c1ccccc1)C(=O)c1ccccc1 (stereo not drawn)"
  growth inhibition [%]: 9.3

----------
# EXPERIMENT_NOTES: NCI Yeast Anticancer Drug Screen. Data for the mec2-1 strain (AID 157)
# TEST_SETTINGS: S. cerevisiae mec2-1 strain, at 50.0 µM
About 79,000 compounds went through this panel and 15% of them were active in at least one assay; those are over-represented in the sample as a whole. The source made the active and inactive calls. No stated cut-off is given here; in the data, active means growth inhibition above about 70%; inactive means the rest.
Labels: 1 (yes) = active, 0 (no) = inactive

- COMPOUND: "O=[N+]([O-])c1ccc2nc(-c3ccc(S(=O)(=O)F)cc3)cc(Cl)c2c1"
  CLASSIFICATION: "0 (no)"
- COMPOUND: "CNC1=C(C)C(=O)C2=C(C1=O)C(COC(N)=O)C1(OC)C3NC3CN21 (stereo unspecified)"
  CLASSIFICATION: "0 (no)"
- COMPOUND: "Cc1cc(C)c(O)c(C)c1"
  CLASSIFICATION: "0 (no)"
- COMPOUND: "CCOC(=O)c1c(SC)nc(-c2ccc(Cl)cc2)sc1=N"
  CLASSIFICATION: "0 (no)"
- COMPOUND: "C/C=C(/C)C(=O)O[C@H]1CCN2CC=C(COC(=O)[C@@](O)([C@H](C)OC)C(C)(C)O)[C@H]12"
  CLASSIFICATION: "0 (no)"
- COMPOUND: "C[C@]12CC[C@H](O[C@@H]3O[C@H](CO[C@@H]4O[C@H](CO)[C@@H](O)[C@H](O)[C@H]4O)[C@@H](O)[C@H](O)[C@H]3O)C[C@@H]1CC[C@@H]1[C@@H]2CC[C@]2(C)[C@@H](C3=CC(=O)OC3)CC[C@]12O"
  CLASSIFICATION: "0 (no)"
- COMPOUND: "Clc1ccc(N=c2ccc3ccccc3[oH+]2)cc1.Clc1ccc(N=c2ccc3ccccc3[oH+]2)cc1.[Co]"
  CLASSIFICATION: "0 (no)"
- COMPOUND: "O=C(CBr)OCS(=O)(=O)O"
  CLASSIFICATION: "0 (no)"
- COMPOUND: "CCOP(=O)(OCC)Oc1c(Cl)c(Cl)c(O)c(Cl)c1Cl"
  CLASSIFICATION: "0 (no)"
- COMPOUND: "O=NC1C(=O)NC(=O)NC1=O"
  CLASSIFICATION: "0 (no)"
- COMPOUND: "CCC(C)(Cl)c1ccccc1 (stereo unspecified)"
  CLASSIFICATION: "0 (no)"
- COMPOUND: "CC(C)(O)/C=C/C(=O)[C@](C)(O)[C@H]1[C@H](O)C[C@@]2(C)[C@@H]3CC=C4[C@@H](C[C@H](O)C(=O)C4(C)C)[C@]3(C)C(=O)C[C@]12C"
  CLASSIFICATION: "0 (no)"
- COMPOUND: "Nc1ccc2c(c1)Oc1ccc(N)cc1O2"
  CLASSIFICATION: "0 (no)"
- COMPOUND: "CCC1(CCBr)C(=O)NC(=O)NC1=O"
  CLASSIFICATION: "0 (no)"
- COMPOUND: "CC(=O)[O][Sn]([CH2]C1CCCC1)([CH2]C1CCCC1)[CH2]C1CCCC1"
  CLASSIFICATION: "1 (yes)"
- COMPOUND: "CS(=O)(=O)Oc1c(Cl)cc(S(=O)(=O)F)cc1Cl"
  CLASSIFICATION: "1 (yes)"
- COMPOUND: "CC1(C)OCC(CO)(Nc2nc(N3CC3)nc(N3CC3)n2)CO1"
  CLASSIFICATION: "0 (no)"
- COMPOUND: "Oc1ccc(Br)cc1"
  CLASSIFICATION: "0 (no)"
- COMPOUND: "O=C1CCN(C2(c3ccccc3)CCCCC2)CC1"
  CLASSIFICATION: "0 (no)"
- COMPOUND: "CC(=O)[C-](Br)C(C)=O.CC(=O)[C-](Br)C(C)=O.CC(=O)[C-](Br)C(C)=O.[Ru+3]"
  CLASSIFICATION: "0 (no)"
- COMPOUND: "O=P1(N2CCCCC2)OCC2(CO1)COP(=O)(N1CCCCC1)OC2 (stereo unspecified)"
  CLASSIFICATION: "0 (no)"
- COMPOUND: "NC(c1ccccc1)C(O)c1ccc(O)cc1 (stereo unspecified)"
  CLASSIFICATION: "0 (no)"
- COMPOUND: "NNc1ccc([N+](=O)[O-])cc1"
  CLASSIFICATION: "0 (no)"
- COMPOUND: "[N-]=[N+]=[N-]"
  CLASSIFICATION: "0 (no)"
- COMPOUND: "CCOC(=O)C(CC)(CC)C(=O)OCC"
  CLASSIFICATION: "0 (no)"
- COMPOUND: "Cc1ncc([N+](=O)[O-])n1C(C)C(=O)Nc1ccc(N(CCCl)CCCl)cc1 (stereo unspecified)"
  CLASSIFICATION: "0 (no)"
- COMPOUND: "CCC1(N)C(=O)OCc2c1cc1n(c2=O)Cc2cc3ccccc3nc2-1 (stereo unspecified)"
  CLASSIFICATION: "0 (no)"
- COMPOUND: "ClCc1ccccc1"
  CLASSIFICATION: "0 (no)"
- COMPOUND: "O=S(=O)(O)c1ccc([Se][Se]c2ccc(S(=O)(=O)O)cc2)cc1"
  CLASSIFICATION: "0 (no)"
- COMPOUND: "CC1(Cl)C(=O)NC(=O)NC1O (stereo unspecified)"
  CLASSIFICATION: "0 (no)"
- COMPOUND: "CCCCOP(=O)(O)SP(=O)(O)OCCCC"
  CLASSIFICATION: "0 (no)"
- COMPOUND: "[CH3][Sn]([CH3])([O]S(=O)c1ccc(Cl)cc1)[O]S(=O)c1ccc(Cl)cc1 (stereo unspecified)"
  CLASSIFICATION: "0 (no)"
- COMPOUND: "Cc1ccc(C)c(NP(=O)(Nc2cc(C)ccc2C)N(CCCl)CCCl)c1"
  CLASSIFICATION: "0 (no)"
- COMPOUND: "CN(C)C(=S)Oc1c(S(=O)(=O)F)ccc(Cl)c1Cl"
  CLASSIFICATION: "1 (yes)"
- COMPOUND: "CN(C)C(=O)Sc1cc(Cl)c(S(=O)(=O)F)cc1Cl"
  CLASSIFICATION: "0 (no)"
- COMPOUND: "CC1(C)CN=C(Nc2ccc(Cl)cc2)S1"
  CLASSIFICATION: "0 (no)"
